- TARGET UNDER TEST: Glutamate NMDA receptor
- TEST: Displacement of L-[3H]glutamate from glutamate receptor in rat brain synaptic membrane
Non-standard residues stand in square brackets, D forms with d. Residues, ends and D or L forms follow the SMILES beside them. Pip = O=C(O)[C@@H]1CCCCN1
OBSERVED PROPERTY: Ki (µM)

Value of measured Ki for the entry NCC(=O)N1CCCC[C@H]1C(=O)N[C@@H](CCC(=O)O)C(=O)O (H-Gly-[Pip]-Glu-OH) : 2.39

Value of measured Ki for the entry NCC(=O)N1C2CCC1(C(=O)N[C@@H](CCC(=O)O)C(=O)O)CC2 : 0.48

Value of measured Ki for the entry NCC(=O)N1C[C@@H](N)C[C@H]1C(=O)N[C@@H](CCC(=O)O)C(=O)O : 15.5

I: NCCCC[C@H](N)C(=O)N1CCC[C@H]1C(=O)N[C@@H](CCC(=O)O)C(=O)O (H-Lys-Pro-Glu-OH)
II: N[C@@H](CC(=O)O)C(=O)N1CCC[C@H]1C(=O)N[C@@H](CCC(=O)O)C(=O)O (H-Asp-Pro-Glu-OH)
III: C[C@H](N)C(=O)N1CCC[C@H]1C(=O)N[C@@H](CCC(=O)O)C(=O)O
# rank by Ki, ascending (min first) Form entry: ranked labels (order as requested).
III, I, II
(III: 2.66 µM, I: 22 µM, II: 41.3 µM)
